System: CAKI-1
assay-text: NCI tumour cell line growth inhibition, 48 h
Active and inactive are the calls of the source. No stated cut-off is given here; in the data, active = GI50 up to about 1.1 µM and inactive = higher.
Your answer must be one of the following: active, inactive

CS/C(=N\c1nccs1)NC(=O)c1cccc(Cl)c1 :: inactive
Oc1cccc2cc(Br)cnc12 :: inactive
COc1ccc(C[C@H]2NC(=O)/C=C/C[C@@H]([C@H](C)[C@H]3O[C@@H]3c3ccccc3)OC(=O)[C@H](CC(C)C)OC(=O)[C@H](C)CNC2=O)cc1 :: active
CC1=CC(=O)/C(=C/NC(=S)Nc2ccc(S(N)(=O)=O)cc2)C(=O)O1 :: inactive
Cc1nc2c(Cl)cc(Cl)cc2c(Cl)c1CCCl :: inactive

Q: // return assay outcome for "CC(=O)Oc1ccc2c3c1[C@@H]1O[C@@H]1c1cccc(c1-3)[C@@H]1O[C@H]21"
Result: inactive

Q: Just curious, what result did O=C(/N=C1/NCC(CN2CCN(c3ccccc3)CC2)O1)Nc1ccccc1 (centres undefined) get here?
Result: inactive

Q: Per the records of this test, what outcome belongs to N#Cc1cc2c(n(C3OC(CO)C(O)C(O)C3O)c1=S)CCCCCC2 (centres undefined) ?
Result: inactive

Q: Could you please tell me the result logged for "Cc1ccc(-c2c(C#N)c(-c3ccc(Cl)cc3)c(C#N)c(=O)n2NS(=O)(=O)c2ccc(C)cc2)cc1" in this assay?
Result: inactive

====

Test system: NCI-H226
assay-text: NCI tumour cell line growth inhibition, 48 h
Active and inactive are the calls of the source. No stated cut-off is given here; in the data, active = GI50 up to about 1.1 µM and inactive = higher.
Measured GI50 accompanies every entry in the list below.

Answered examples (3):
CCCCCC/C=C\CCCCCCCCC(=O)c1cccc(OC)c1OC :: > 100 µM (inactive)
CCOP1(=O)C=C(Sc2ccc([N+](=O)[O-])cc2[N+](=O)[O-])C(C)(C)O1 (stereo not given) :: 25.5 µM (inactive)
CC(=O)OCC(OC(C)=O)C(OC(C)=O)C(OC(C)=O)C(/C=N\Nc1nc2ccccc2c(=O)[nH]1)=N/Nc1nc2ccccc2c(=O)[nH]1 (stereo not given) :: > 100 µM (inactive)

Q: Please report the recorded GI50 for "Cn1c(=O)c2c(no[n+]2[O-])c2ccccc21" .
Result: 16.9 µM (inactive)

Q: Which GI50 value belongs to N#Cc1cc2c(n(C3OC(CO)C(O)C(O)C3O)c1=S)CCCCCC2 (stereo not given) ?
Result: > 100 µM (inactive)

====

System: 786-0
assay-text: NCI tumour cell line growth inhibition, 48 h
The source made the active and inactive calls. Cut-off read from the data, not from the text of the source: active = GI50 up to about 1.1 µM and inactive = higher.
measured-parameter: GI50

CCOc1ccc2c(c1)c(=O)c1c(NCCN(CC)CC)ccc3nnn2c31 :: > 32.8 µM (inactive)

Q: Field request: GI50 | item: "Oc1cc(Br)cc2cc(Br)cnc12"
Result: 13.8 µM (inactive)

Q: Given the entry "C(=C\c1cccc(/C=C/c2ccccn2)n1)/c1ccccn1" , report its measured GI50.
Result: > 100 µM (inactive)

Q: Consider the compound "COc1cc2c(cc1OC)-c1c(cc(OC)c(OC)c1OC)C2=O" and give its measured GI50.
Result: > 100 µM (inactive)

Q: Value lookup for GI50; key = "OC1CCN(c2c3ccccc3nc3ccccc23)CC1"
Result: 4.99 µM (inactive)

Q: Please look up its GI50: O=C1N2CCN=C2c2ccccc2C1(O)c1ccccc1 (stereo unspecified)
Result: > 100 µM (inactive)
